tested on: B16; test: Effective dose of perorally administered compound against B16 melanoma BL6 cells implanted into mice; type: functional; conditions: Mus musculus, B16, po
Measured ED50 accompanies every entry in the list below.
Return type: number; implicit unit mg/kg.

# count of solved cases: 4
- smiles.repr: "CC(=O)O[C@@]12CO[C@@H]1CC[C@@]1(C)[C@@H]3O[C@H](CN4CCOCC4)O[C@@H]3C3=C(C)[C@@H](OC(=O)[C@H](O)[C@@H](NC(=O)OC(C)(C)C)c4cscn4)C[C@@](O)([C@@H](OCc4ccccc4)[C@@H]12)C3(C)C"
  property.label: "ED50"
  reading: 7.9
- smiles.repr: "CC(=O)O[C@@]12CO[C@@H]1CC[C@@]1(C)[C@@H]3O[C@H](CN4CCOCC4)O[C@@H]3C3=C(C)[C@@H](OC(=O)[C@H](O)[C@@H](NC(=O)OC(C)(C)C)c4ccc(F)cn4)C[C@@](O)([C@@H](OCc4ccccc4)[C@@H]12)C3(C)C"
  property.label: "ED50"
  reading: 7.9
- smiles.repr: "CC(=O)O[C@@]12CO[C@@H]1CC[C@@]1(C)[C@@H]3O[C@H](CN(C)C)O[C@@H]3C3=C(C)[C@@H](OC(=O)[C@H](O)[C@@H](NC(=O)OC(C)(C)C)c4nccs4)C[C@@](O)([C@@H](OCc4ccccc4)[C@@H]12)C3(C)C"
  property.label: "ED50"
  reading: 11.9
- smiles.repr: "COc1ccc([C@H](NC(=O)OC(C)(C)C)[C@@H](O)C(=O)O[C@H]2C[C@@]3(O)[C@@H](OCc4ccccc4)[C@H]4[C@@](C)(CC[C@H]5OC[C@]54OC(C)=O)[C@@H]4O[C@H](CN5CCOCC5)O[C@@H]4C(=C2C)C3(C)C)nc1"
  property.label: "ED50"
  reading: 13.3

Look up ED50: CC(=O)O[C@@]12CO[C@@H]1CC[C@@]1(C)[C@@H]3O[C@H](CN(C)C)O[C@@H]3C3=C(C)[C@@H](OC(=O)[C@H](O)[C@@H](NC(=O)OC(C)(C)C)C(C)(C)C)C[C@@](O)([C@@H](OCc4ccccc4)[C@@H]12)C3(C)C
11.9
